- System: NCI/ADR-RES ovarian
- procedure-summary: NCI-60 one-dose screen, 48 h
- test-context: 10 µM unless noted
This is part of a sample that, as a whole, favours compounds with a hit. Of some 83,000 tested, about 20% had one in any assay. Active and inactive are the calls of the source. How the source made its calls: active means growth percent below 10; inactive means the rest.
Outcome codes: Yes (active), No (inactive)

compound: CC(=O)Nc1ccc(C(=O)c2ccc(S(=O)(=O)Nc3ccccc3)cc2)cc1
assigned-category: No
--
compound: S=C(NCc1ccccc1)N1CCC(CCCC2CCN(C(=S)NCc3ccccc3)CC2)CC1
assigned-category: No
--
compound: O=C(OCc1ccccc1)n1nnc2ccccc21
assigned-category: No
--
compound: CCCCNC(=O)c1ccc(OCC)cc1
assigned-category: No
--
compound: O=CNCCc1ccccc1
assigned-category: No
--
compound: CCC1CCC(C)NC1 (stereo unspecified)
assigned-category: No
--
compound: Cc1ccc(O)c(N)c1
assigned-category: No
--
compound: N#Cc1ccc(OC(=O)Nc2c(Cl)cc(Cl)cc2Cl)cc1
assigned-category: No
--
compound: Cc1cccc2ccccc12
assigned-category: No
--
compound: CC(=O)c1cccs1
assigned-category: No
--
compound: C=CC(C)(C)n1cc(C2=C(O)C(=O)C(c3cn(C(C)(C)C=C)c4ccccc34)=C(O)C2=O)c2ccccc21
assigned-category: No
--
compound: O=S(=O)(O)C(C(I)I)S(=O)(=O)O
assigned-category: No
--
compound: Cc1ccc(C)c(CCO)c1
assigned-category: No
--
compound: CCN(CC)CCN1CNC(=S)NC1
assigned-category: No
--
compound: CN(C)c1ccc(O)c2c1CC1CC3C(N(C)C)C(=O)C(C(N)=O)=C(O)C3(O)C(=O)C1=C2O (stereo unspecified)
assigned-category: No
--
compound: N#CCCN1C(=O)CCC1C(=O)O (stereo unspecified)
assigned-category: No
--
compound: CC(=O)OC(C)c1cccc(C#N)c1 (stereo unspecified)
assigned-category: No
--
compound: O=C(NCc1ccccc1)c1cccc([N+](=O)[O-])c1
assigned-category: No
--
compound: CCOC(=O)Nc1nccs1
assigned-category: No
--
compound: Cc1ccnc(Nc2nc3ccccc3[nH]2)n1
assigned-category: No
--
compound: O=C(Nc1ccc([N+](=O)[O-])cc1)C(=O)Nc1ccc([N+](=O)[O-])cc1
assigned-category: No
--
compound: O=C(Nc1c(Cl)cc(Cl)cc1Cl)ON=C1CCCCC1
assigned-category: No
--
compound: CCOC(=O)c1cc(Cl)c(O)c(Cl)c1
assigned-category: No
--
compound: CCOC(=O)c1ccc(NC(=O)Nc2nccs2)cc1
assigned-category: Yes
--
compound: C(=C\c1ccncc1)/c1ccncc1
assigned-category: No
--
compound: S=c1nc(-c2ccccn2)c(-c2ccccn2)n[nH]1
assigned-category: No
--
compound: O=C(O)c1ccc([N+](=O)[O-])cc1S(=O)(=O)O
assigned-category: No
--
compound: Cc1cc(Cc2ccccc2)c(O)c(Cc2ccccc2)c1
assigned-category: No
--
compound: OCC1CCC(O)C(CO)N1 (stereo unspecified)
assigned-category: No
--
compound: C/C(Cc1ccccc1)=N\O
assigned-category: No
--
compound: CC(=O)CSc1ncnc2nc[nH]c12
assigned-category: No
--
compound: Nc1nc2nnc(-c3ccccc3)c(-c3ccccc3)n2n1
assigned-category: No
--
compound: Nc1cccc2cccc(O)c12
assigned-category: No
--
compound: CCOC(=O)c1ccc(NC(C)=O)o1
assigned-category: No
--
compound: Nc1ccc(F)cc1F
assigned-category: No
--
compound: NNC(=O)c1ccccc1N
assigned-category: No
--
compound: CC(=O)NC(CCC(=O)c1ccccc1)C(=O)O (stereo unspecified)
assigned-category: No
--
compound: COc1ccc2c(Cl)cc(NC(=O)Nc3c(C)cccc3C)nc2c1
assigned-category: No
--
compound: O=S(=O)(c1ccc(NC(=S)NCc2cccnc2)cc1)N1CCCCC1
assigned-category: No
--
compound: C=CCc1cc(OC)c(O)c(OC)c1
assigned-category: No
--
compound: CC1(c2ccccc2)CO1 (stereo unspecified)
assigned-category: No
--
compound: CCOS(=O)(=O)c1ccc([N+](=O)[O-])cc1
assigned-category: No
--
compound: COc1nc(Nc2cccc(C(F)(F)F)c2)nc(OC)n1
assigned-category: No
--
compound: OCCc1ccc(Cl)cc1
assigned-category: No
--
compound: O=C(NCc1ccco1)Nc1cccc2c(NC(=O)NCc3ccco3)cccc12
assigned-category: No
--
compound: O=C(NCc1ccccc1)/C(=C/c1ccccc1)NC(=O)c1ccccc1
assigned-category: No
--
compound: O=C1C=Cc2ccccc2/C1=C/c1[nH]c(=O)[nH]c1O
assigned-category: No
--
compound: O=c1nc(Nc2cccc(Cl)c2)oc2cc(Cl)oc(=O)c12
assigned-category: No
--
compound: Nc1ncc([N+](=O)[O-])cn1
assigned-category: No
--
compound: CCNCC(C)(C)O
assigned-category: No
--
compound: Cc1ccc(NCN2C(=O)c3ccccc3C2=O)c(C)n1
assigned-category: No
--
compound: Cc1ccc(OC(=O)c2ccccc2)cc1
assigned-category: No
--
compound: O=C1NCC2CCCC1C2 (stereo unspecified)
assigned-category: No
--
compound: Clc1ccc(C(SCc2ccccc2)SCc2ccccc2)cc1
assigned-category: No
--
compound: O=C(c1ccc(Cl)cc1)N1CCCCC1
assigned-category: No
--
compound: CC(=O)Nc1ccc(O)c(C)c1
assigned-category: No

---

- Test system: 786-0 renal
- procedure-summary: NCI-60 one-dose screen, 48 h
- test-context: 10 µM unless noted
Compounds without any hit were thinned out: in the full panel of roughly 83,000, 20% have a hit. The source made the active and inactive calls. Rule for the calls: active = growth percent below 10; inactive = the rest.
Outcome codes: active, inactive

compound: O=S(=O)(O)c1ccc(O)c(C2CCCCC2)c1
assigned-category: inactive
//
compound: CC(=O)C[n+]1ccc(C)cc1Sc1ccccc1C
assigned-category: inactive
//
compound: CCOC(=O)c1cc(C)[nH]c(=O)c1C#N
assigned-category: inactive
//
compound: CCOC(=O)c1c[nH][nH]c1=O
assigned-category: inactive
//
compound: COC1C(=O)CCC2(CO2)C1(O)C1(C)OC1CCC(C)C (centres undefined)
assigned-category: inactive
//
compound: Nc1c(Br)cc(O)c2c1C(=O)c1ccccc1C2=O
assigned-category: inactive
//
compound: CC(=O)N(C(C)=O)c1ccc(C)cc1
assigned-category: inactive
//
compound: Cc1ccc(N)c(S(=O)(=O)O)c1
assigned-category: inactive
//
compound: N#Cc1ccc2nc[nH]c2c1
assigned-category: inactive
//
compound: Cc1ccc2nc(-c3ccc(N=Cc4ccccc4O)cc3)sc2c1
assigned-category: inactive
//
compound: CC(C)N(CCCC#N)C(C)C
assigned-category: inactive
//
compound: Clc1cccc(Cl)c1CSc1nc2ccccc2n2cccc12
assigned-category: inactive
//
compound: COC1OC(C(COC(C)=O)OC(C)=O)C(OC(C)=O)C(OC(C)=O)C1OC(C)=O (centres undefined)
assigned-category: inactive
//
compound: CCC12OC(COc3ccccc3)CN1CCN2c1ccccc1 (centres undefined)
assigned-category: inactive
//
compound: O=S(=O)(O)c1cccc2cccnc12
assigned-category: inactive
//
compound: Cc1ccc(S(=O)(=O)Oc2ccc3sc4c(CO)ccc(NCCN(C)C)c4c(=O)c3c2)cc1
assigned-category: active
//
compound: CSc1nsc(N)n1
assigned-category: inactive
//
compound: COc1cc(OC)c2cc(C(=O)c3ccc(C#N)cc3)c(=O)oc2c1
assigned-category: inactive
//
compound: S=c1nc(-c2ccccn2)c(-c2ccccn2)n[nH]1
assigned-category: inactive
//
compound: CCCCCCCCCCCCCCCCCC(=O)NCCNC(=O)CCCCCCCCCCCCCCCCC
assigned-category: inactive
//
compound: Cc1cc2c3ccc(C)[n+](C)c3ccc2n1C
assigned-category: inactive
//
compound: CC(=O)O[C@H]1CC[C@]2(C)C3=C(C(=O)C[C@H]2C1(C)C)[C@]1(C)CC[C@H]([C@H](C)CCC(=O)O)[C@@]1(C)CC3=O
assigned-category: inactive
//
compound: CN(C)c1ccc2nc3ccc(=[N+](C)C)cc-3oc2c1
assigned-category: inactive
//
compound: CC(C)=CCC[C@@H](C)[C@H]1CC[C@@]2(C)C3=C(CC[C@]12C)[C@@]1(C)CC[C@H](O)C(C)(C)[C@@H]1CC3
assigned-category: inactive

---

- Tested on: DU-145 prostate
- procedure-summary: NCI-60 one-dose screen, 48 h (100 = growth as untreated, 0 = no growth, -100 = all killed)
- test-context: 10 µM unless noted
The panel holds about 83,000 compounds, 20% with a hit somewhere; the sample as a whole holds those more often.

compound: O=C(Nc1ccccc1)c1ccco1
growth, %: 112
--
compound: COc1cccc(N=CNc2cccc(OC)c2)c1
growth, %: 107
--
compound: Nc1cccc2cccc(O)c12
growth, %: 99.1
--
compound: CCC(=O)C1C(=O)c2ccccc2C1=O
growth, %: 113
--
compound: CN1CCN(C(=S)S)CC1
growth, %: 102
--
compound: O=Cc1c(O)c2ccccc2[nH]c1=O
growth, %: 158
--
compound: CC(C)(CC(=O)O)CC(=O)O
growth, %: 111
--
compound: CN(C)Cc1ccccn1
growth, %: 120
--
compound: Nc1ccc(F)c(Cl)c1F
growth, %: 111
--
compound: CC1CN(CCO)CC(C)O1 (stereo not given)
growth, %: 107
--
compound: C1=NCCc2ccccc21
growth, %: 111
--
compound: CCOC(=O)CNC(=O)Sc1ccc(C(C)(C)C)cc1
growth, %: 114
--
compound: CC(=O)[C@@]1(O)CC[C@H]2[C@@H]3CC[C@@H]4CC(=O)CC[C@]4(C)[C@H]3[C@@H](O)C[C@@]21C
growth, %: 111
--
compound: Nc1nnc2cc(F)ccc2n1
growth, %: 102
--
compound: CC(O)C(F)(F)C(F)(F)C(F)(F)F (stereo not given)
growth, %: 119
